Origin of the recorded values: patent US7491723B2

# maps each entry to its inhibition at 1 µM
Measured target: human hNET (Homo sapiens)
Construct: expressed in transfected cells
Procedure text: Norepinephrine (NE) uptake assay in MDCK-Net6 cells
Assay type: cell-based
Test parameters: 1 μM test compound, [3H]NE uptake
Where a name gives a salt, the structure may show the parent alone.
Express your answer in %, writing the number without its unit.

Molecule | Assay endpoint | Unit | Measured result
CC1CCC(O)(C(CN2CCNCC2)c2cccc(Cl)c2)CC1 (stereo not shown) [Example 334, dihydrochloride] | inhibition at 1 µM | % | 71.7

I have this molecule here, CC(C)(C)C1CCC(O)(C(CN2CCNCC2)c2cccc(Cl)c2)CC1 (stereo not shown) [Example 93, dihydrochloride] , and I need its recorded inhibition at 1 µM.
12

I have this molecule here, CN1CCN(CC(c2cccc(Cl)c2)C2CCCCC2)CC1 (stereo not shown) [Example 231, dihydrochloride] , and I need its recorded inhibition at 1 µM.
91.2

I have this molecule here, CN1CCC(O)(C(CN2CCNCC2)c2cccc(Br)c2)CC1 (stereo not shown) [Example 58, dihydrochloride] , and I need its recorded inhibition at 1 µM.
35

----------
Measured target: human hNET (Homo sapiens, UniProt P23975)
Construct: expressed in transfected cells
Sequence (P23975 whole entry): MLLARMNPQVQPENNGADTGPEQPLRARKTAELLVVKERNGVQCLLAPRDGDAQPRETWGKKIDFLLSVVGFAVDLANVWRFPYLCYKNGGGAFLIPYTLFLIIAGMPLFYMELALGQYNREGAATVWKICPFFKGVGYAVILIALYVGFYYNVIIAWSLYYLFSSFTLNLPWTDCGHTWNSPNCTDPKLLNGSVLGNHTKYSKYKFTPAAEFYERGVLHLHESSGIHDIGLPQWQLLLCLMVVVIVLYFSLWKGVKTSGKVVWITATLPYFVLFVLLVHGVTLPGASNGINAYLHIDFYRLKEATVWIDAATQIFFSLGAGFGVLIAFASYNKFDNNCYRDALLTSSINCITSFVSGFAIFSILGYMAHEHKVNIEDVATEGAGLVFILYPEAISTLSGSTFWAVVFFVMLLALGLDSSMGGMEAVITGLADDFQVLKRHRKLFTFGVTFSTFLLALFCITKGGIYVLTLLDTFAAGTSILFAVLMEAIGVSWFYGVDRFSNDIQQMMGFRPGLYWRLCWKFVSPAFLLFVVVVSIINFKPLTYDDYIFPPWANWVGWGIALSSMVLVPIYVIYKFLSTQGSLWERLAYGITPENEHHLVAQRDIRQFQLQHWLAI
Procedure text: Norepinephrine (NE) uptake assay in MDCK-Net6 cells
Type: cell-based
Test parameters: at 30 μM test compound, [3H]NE uptake
Counter-ions that a name gives are not always drawn.
# maps each entry to its inhibition at 30 µM
Express your answer in %, writing the number without its unit.

Molecule | Unit | inhibition at 30 µM
OC1(C(CN2CCNCC2)c2cccc(Br)c2)CCOCC1 (stereo not shown) [Example 103, dihydrochloride] | % | 69

I have this molecule here, CCC(O)(CC)C(CN1CCN(C)CC1)c1cccc(Cl)c1 (stereo not shown) [Example 94, dihydrochloride] , and I need its recorded inhibition at 30 µM.
71

----------
# maps each entry to its inhibition at 1 µM
Measured target: human hNET (Homo sapiens, UniProt P23975)
Construct: expressed in transfected cells
Procedure text: Norepinephrine (NE) uptake assay in MDCK-Net6 cells
Format: cell-based
Test parameters: 1 μM test compound, [3H]NE uptake
Structures can show the parent of a compound that is named as a salt.
Express your answer in %, writing the number without its unit.

Compound | Measured target | inhibition at 1 µM (%)
CCC(O)(CC)C(CN1CCNCC1)c1cccc(Br)c1 (stereo not shown) [Example 50, dihydrochloride] | human hNET (Homo sapiens, UniProt P23975) | 89

I have this compound here, CCC(O)(CC)C(CN1CCNCC1)c1ccc(OC)c(Br)c1 (stereo not shown) [Example 65, dihydrochloride] , and I need its recorded inhibition at 1 µM.
12

I have this compound here, OC1(C(CN2CCNCC2)c2cccc(Cl)c2)CCCC2CCCCC21 (stereo not shown) [Example 72, dihydrochloride] , and I need its recorded inhibition at 1 µM.
25

I have this compound here, COc1ccc(C(CN2CCN(C)CC2)C2(O)CCC(C(C)(C)C)CC2)cc1Br (stereo not shown) [Example 73, dihydrochloride] , and I need its recorded inhibition at 1 µM.
25

----------
Measured target: human hNET (Homo sapiens, UniProt P23975)
Construct: expressed in transfected cells
Procedure text: Norepinephrine (NE) uptake assay in MDCK-Net6 cells
Format: cell-based
Test parameters: 1 μM test compound, [3H]NE uptake
Protocol: MDCK-Net6 cells, stably transfected with human hNET (Pacholczyk, T., R. D. Blakely, and S. G. Amara, Nature, 1991, 350(6316): p. 350-4) were cultured in growth medium containing high glucose DMEM (Gibco, Cat. No. 11995), 10% FBS (dialyzed, heat-inactivated, US Bio-Technologies, Lot FBD1129HI) and 500 μg/ml G418 (Gibco, Cat. No. 10131). Cells were plated at 300,000/T75 flask and cells were split twice weekly. […]
Counter-ions that a name gives are not always drawn.
Assign Y to entries whose inhibition at 1 µM meets or exceeds 30%; assign N to the rest.

Compound | Measured target | Cat
CCC(O)(CC)C(CN1CCNCC1)c1cccc(Cl)c1 (centres unmarked) [Example 52, dihydrochloride] | human hNET (Homo sapiens, UniProt P23975) | Y
OC1(C(CN2CCNCC2)c2cccc(Cl)c2)CCOCC1 (centres unmarked) [Example 77, dihydrochloride] | human hNET (Homo sapiens, UniProt P23975) | Y
CN1CCN(CC(c2cccc(Br)c2)C2(O)CC(C)(C)CC(C)(C)C2)CC1 (centres unmarked) [Example 88, dihydrochloride] | human hNET (Homo sapiens, UniProt P23975) | N
CC(C)(O)C(CN1CCNCC1)c1cccc(Cl)c1 (centres unmarked) [Example 275, dihydrochloride] | human hNET (Homo sapiens, UniProt P23975) | Y
CCC(O)(CC)C(CN1CCN(C)CC1)c1ccc(OC)c(Br)c1 (centres unmarked) [Example 66, dihydrochloride] | human hNET (Homo sapiens, UniProt P23975) | N
CN1CCN(CC(c2cccc(Cl)c2)C2(O)CC(C)(C)CC(C)(C)C2)CC1 (centres unmarked) [Example 278, dihydrochloride] | human hNET (Homo sapiens, UniProt P23975) | N

Answer whether inhibition at 1 µM of OC1(C(CN2CCNCC2)c2cccc(Cl)c2)CCC2CCCCC2C1 (centres unmarked) [Example 74, dihydrochloride] is greater than or equal to 30%.
N

Answer whether inhibition at 1 µM of CN1CCN(CC(c2cccc(Cl)c2)C(C)(C)O)CC1 (centres unmarked) [Example 276, dihydrochloride] is greater than or equal to 30%.
N
